# target.system: T1, 4H3606-bH
# T1 chain: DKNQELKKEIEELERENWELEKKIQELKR
# assay.summary: two-hybrid library CCNG1;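 note: natural log of median RNA to DNA barcode read ratio; higher means stronger binding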
Collected interaction score values appear next to each entry.

Consider the reported interaction score for these binders:
binder	reported.metric	measurement
DENQELEKKIEELERKIWELKKKNQELKR [4H1328-bH]	interaction score	0.235
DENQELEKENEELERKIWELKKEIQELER [4H1193-bH]	interaction score	-0.559

Here is another binder to look at.
// interaction score value for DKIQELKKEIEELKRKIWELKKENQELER [4H2667-bH] : 1.83
